Each entry below carries its recorded switch fluorescence ratio.
# System: ATP;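 further: ATP exposure 15 min at 22 °C before imaging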
# test.name: switch fluorescence ratio, 500 uM ATP over buffer (Cy3 cluster intensity, sum of 5 cycles each) (fold (ratio)); higher = stronger signal-on switching upon ATP binding; sequences stand for … in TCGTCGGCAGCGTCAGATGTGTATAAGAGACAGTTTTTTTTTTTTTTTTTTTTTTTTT…TC
# measurement.parameters: aptamer strand: ATP DNA aptamer (quencher-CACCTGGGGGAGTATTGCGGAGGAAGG + anchor), 100 nM annealed; ATP concentration: 500 uM

{"construct.sequence": "AGGGTCGGAC", "switch fluorescence ratio": 1.01}
{"construct.sequence": "TTTTTCCCCT", "switch fluorescence ratio": 0.992}
{"construct.sequence": "CGTTTTATTG", "switch fluorescence ratio": 0.99}
{"construct.sequence": "GGGGAATGCT", "switch fluorescence ratio": 1.01}
{"construct.sequence": "GATTGCTTGA", "switch fluorescence ratio": 0.999}
{"construct.sequence": "GGTGCGGCTT", "switch fluorescence ratio": 1.01}
{"construct.sequence": "TTGCTTTTTT", "switch fluorescence ratio": 0.992}
{"construct.sequence": "TAAGGGAGTT", "switch fluorescence ratio": 0.987}
{"construct.sequence": "AAGTAGGAAA", "switch fluorescence ratio": 0.999}
{"construct.sequence": "AGTGCTTTTG", "switch fluorescence ratio": 0.978}
{"construct.sequence": "AGAGGGGGGT", "switch fluorescence ratio": 0.99}
{"construct.sequence": "ACTTAAGGTC", "switch fluorescence ratio": 1}
{"construct.sequence": "AATGCCAAGG", "switch fluorescence ratio": 1}
{"construct.sequence": "GTGATATGAG", "switch fluorescence ratio": 1.01}
{"construct.sequence": "GAATTTTTTC", "switch fluorescence ratio": 1.02}
{"construct.sequence": "GCATCTAGAT", "switch fluorescence ratio": 0.986}
{"construct.sequence": "CTAGGTGGCT", "switch fluorescence ratio": 1.02}

====

// values below are reported switch fluorescence ratio
# Tested on: ATP;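 further: ATP exposure 15 min at 22 °C before imaging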
# test.name: switch fluorescence ratio, 500 uM ATP over buffer (Cy3 cluster intensity, sum of 5 cycles each) (fold (ratio)); higher = stronger signal-on switching upon ATP binding; sequences stand for … in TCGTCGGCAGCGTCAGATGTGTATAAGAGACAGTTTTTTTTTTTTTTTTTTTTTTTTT…TC
# measurement.parameters: aptamer strand: ATP DNA aptamer (quencher-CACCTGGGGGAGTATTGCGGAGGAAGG + anchor), 100 nM annealed; ATP concentration: 500 uM

{"construct.sequence": "ATGCTGGGGT", "switch fluorescence ratio": 0.986}
{"construct.sequence": "GTACGAAGTT", "switch fluorescence ratio": 0.973}
{"construct.sequence": "TTATTTGGA", "switch fluorescence ratio": 0.98}
{"construct.sequence": "TATTGTATGA", "switch fluorescence ratio": 1.03}
{"construct.sequence": "GCGCTCGTAC", "switch fluorescence ratio": 2.27}
{"construct.sequence": "GGTGCGGGGG", "switch fluorescence ratio": 0.987}
{"construct.sequence": "GGTCGGGGTT", "switch fluorescence ratio": 1.02}
{"construct.sequence": "TTTAATATTA", "switch fluorescence ratio": 0.986}
{"construct.sequence": "CACTGGAGAG", "switch fluorescence ratio": 1.04}
{"construct.sequence": "TTCAGAAGTC", "switch fluorescence ratio": 1.01}
{"construct.sequence": "GAGCATATCA", "switch fluorescence ratio": 1.01}
{"construct.sequence": "TTTAAGCTAA", "switch fluorescence ratio": 1.13}
{"construct.sequence": "TGGGATCTGG", "switch fluorescence ratio": 0.997}
{"construct.sequence": "AAAAGGGGAG", "switch fluorescence ratio": 1.14}
{"construct.sequence": "CCGGGGGTTT", "switch fluorescence ratio": 1.04}
{"construct.sequence": "GGTTTAAGGC", "switch fluorescence ratio": 0.993}
{"construct.sequence": "TGGTTCAGGT", "switch fluorescence ratio": 1.02}
{"construct.sequence": "GGCTCAATGG", "switch fluorescence ratio": 1.04}
{"construct.sequence": "GCTGTAATTT", "switch fluorescence ratio": 0.998}
{"construct.sequence": "GTTTGTTAAT", "switch fluorescence ratio": 1.01}
{"construct.sequence": "CCGTATATGT", "switch fluorescence ratio": 1.19}
{"construct.sequence": "TTTAGAAAAC", "switch fluorescence ratio": 0.984}
{"construct.sequence": "CGCTGCTCGA", "switch fluorescence ratio": 1.06}
{"construct.sequence": "GGTATTAGAT", "switch fluorescence ratio": 1.01}
{"construct.sequence": "TAGAGGGTGC", "switch fluorescence ratio": 0.967}
{"construct.sequence": "GTTGATTATG", "switch fluorescence ratio": 0.995}
{"construct.sequence": "GAAGTTGGGT", "switch fluorescence ratio": 1.01}
{"construct.sequence": "ATATGCTCAC", "switch fluorescence ratio": 1.05}
{"construct.sequence": "AACGGGGCTC", "switch fluorescence ratio": 1.04}
{"construct.sequence": "CTATGATTTG", "switch fluorescence ratio": 0.998}
{"construct.sequence": "GGCATTACTG", "switch fluorescence ratio": 1.06}
{"construct.sequence": "TGGGATATGG", "switch fluorescence ratio": 0.996}
{"construct.sequence": "GCGTGTAGAT", "switch fluorescence ratio": 1.04}
{"construct.sequence": "TGCATTTTCG", "switch fluorescence ratio": 1.03}
{"construct.sequence": "GGGGTAAAGT", "switch fluorescence ratio": 1.01}
{"construct.sequence": "TATGTTAGGC", "switch fluorescence ratio": 1.02}
{"construct.sequence": "GATGGGGGTC", "switch fluorescence ratio": 1.21}
{"construct.sequence": "GGTCGTCAGT", "switch fluorescence ratio": 0.986}
{"construct.sequence": "TGAGCCTTGG", "switch fluorescence ratio": 0.995}
{"construct.sequence": "GGCTAGGGGT", "switch fluorescence ratio": 1.57}
{"construct.sequence": "ACGGGATCAT", "switch fluorescence ratio": 1.07}
{"construct.sequence": "CCAGTGTGAG", "switch fluorescence ratio": 1.13}
{"construct.sequence": "TCGATAAATG", "switch fluorescence ratio": 1.06}
{"construct.sequence": "TTCCATATCG", "switch fluorescence ratio": 1.03}
{"construct.sequence": "CTAGTGCTTG", "switch fluorescence ratio": 1.01}
{"construct.sequence": "TTGTCTTTTT", "switch fluorescence ratio": 0.998}
{"construct.sequence": "TGTGATTTAA", "switch fluorescence ratio": 1}
{"construct.sequence": "GGGTATAGTA", "switch fluorescence ratio": 0.973}
{"construct.sequence": "TTGGAGTCTG", "switch fluorescence ratio": 0.994}
{"construct.sequence": "TTAATATGGT", "switch fluorescence ratio": 0.99}

====

switch fluorescence ratio: recorded values
# Test system: ATP;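 further: ATP exposure 15 min at 22 °C before imaging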
# test.name: switch fluorescence ratio, 500 uM ATP over buffer (Cy3 cluster intensity, sum of 5 cycles each) (fold (ratio)); higher = stronger signal-on switching upon ATP binding; sequences stand for … in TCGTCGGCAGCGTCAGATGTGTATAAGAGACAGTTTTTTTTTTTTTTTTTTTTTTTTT…TC
# measurement.parameters: aptamer strand: ATP DNA aptamer (quencher-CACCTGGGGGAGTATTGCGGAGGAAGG + anchor), 100 nM annealed; ATP concentration: 500 uM
readout.type: switch fluorescence ratio

{"construct.sequence": "TTGCGGTGGG", "study.target": "ATP", "recorded.result": 1.03}
{"construct.sequence": "TATTTAGGTG", "study.target": "ATP", "recorded.result": 1.11}
{"construct.sequence": "AAAGGGGATC", "study.target": "ATP", "recorded.result": 0.998}
{"construct.sequence": "AAGGGGGACT", "study.target": "ATP", "recorded.result": 1.04}
{"construct.sequence": "CGGGTGGTCG", "study.target": "ATP", "recorded.result": 0.874}
{"construct.sequence": "TAAGGCTGTT", "study.target": "ATP", "recorded.result": 0.953}
{"construct.sequence": "TAAAGTGGCG", "study.target": "ATP", "recorded.result": 1.05}
{"construct.sequence": "AATACGGGGT", "study.target": "ATP", "recorded.result": 1.03}
{"construct.sequence": "TCTACGGTGC", "study.target": "ATP", "recorded.result": 1.5}
{"construct.sequence": "GTAGTTATGG", "study.target": "ATP", "recorded.result": 1.04}

====

# Tested on: ATP;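 further: ATP exposure 15 min at 22 °C before imaging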
# test.name: switch fluorescence ratio, 500 uM ATP over buffer (Cy3 cluster intensity, sum of 5 cycles each) (fold (ratio)); higher = stronger signal-on switching upon ATP binding; sequences stand for … in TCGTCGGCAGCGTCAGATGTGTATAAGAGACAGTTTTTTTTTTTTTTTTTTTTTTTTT…TC
# measurement.parameters: aptamer strand: ATP DNA aptamer (quencher-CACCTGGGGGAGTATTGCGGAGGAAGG + anchor), 100 nM annealed; ATP concentration: 500 uM
Reported switch fluorescence ratio values for a set of sequences
readout.type: switch fluorescence ratio

{"construct.sequence": "CCACTAGACC", "readout.type": "switch fluorescence ratio", "recorded.result": 1.14}
{"construct.sequence": "ATTTTTATAC", "readout.type": "switch fluorescence ratio", "recorded.result": 1.02}
{"construct.sequence": "AAAGTGGGGT", "readout.type": "switch fluorescence ratio", "recorded.result": 1}
{"construct.sequence": "CAGAAAAAAT", "readout.type": "switch fluorescence ratio", "recorded.result": 0.978}

From: the supplement of paper PMC10126150
